Origin of values: paper PMC5564600

# Target Or Test System: panel of 442 kinases (Homo sapiens, UniProt Q9BYT3)
# Construct: purchased Ambit Biosciences (scanMAXX KINOMEscan)
# Sequence (Q9BYT3 whole entry): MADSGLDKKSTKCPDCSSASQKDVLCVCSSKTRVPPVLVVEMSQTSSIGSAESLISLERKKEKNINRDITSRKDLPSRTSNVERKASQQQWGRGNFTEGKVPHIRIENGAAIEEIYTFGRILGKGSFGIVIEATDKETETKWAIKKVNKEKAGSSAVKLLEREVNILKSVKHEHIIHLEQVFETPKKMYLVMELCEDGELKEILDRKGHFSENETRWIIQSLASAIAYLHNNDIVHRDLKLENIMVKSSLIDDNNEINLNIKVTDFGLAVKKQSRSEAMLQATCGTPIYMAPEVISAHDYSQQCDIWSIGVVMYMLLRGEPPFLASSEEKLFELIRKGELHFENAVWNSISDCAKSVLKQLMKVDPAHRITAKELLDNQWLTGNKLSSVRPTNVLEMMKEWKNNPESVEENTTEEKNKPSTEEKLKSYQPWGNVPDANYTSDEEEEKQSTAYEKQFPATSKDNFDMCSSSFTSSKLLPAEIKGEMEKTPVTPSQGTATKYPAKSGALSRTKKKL
# Procedure Text: biochemical
# Type: binding
# Conditions: kinase STK33; 1 µM; read-out: STK33 (% of control at 1 µM)
Assay Metric: remaining activity at 1 µM (%)
Please respond with the number in % and leave the unit unwritten.

Give its remaining activity at 1 µM value. Item: Nc1cc(C(F)(F)F)c(-c2cc(N3CCOCC3)nc(N3CCOCC3)n2)cn1 [Buparlisib]
90

remaining activity at 1 µM lookup needed for COc1ncc(-c2ccc3nccc(-c4ccnnc4)c3c2)cc1NS(=O)(=O)c1ccc(F)cc1F [Omipalisib] , thanks.
100

Look at this compound and give its reported remaining activity at 1 µM. FC(F)c1nc2ccccc2n1-c1nc(N2CCOCC2)nc(N2CCOCC2)n1 [ZSTK474]
100

Data request, read-out remaining activity at 1 µM, for Cn1c(=O)n(-c2ccc(C(C)(C)C#N)cc2)c2c3cc(-c4cnc5ccccc5c4)ccc3ncc21 [Dactolisib]
100

###

Assign remaining activity at 1 µM to each entry below.
# Target Or Test System: panel of 442 kinases (Homo sapiens, UniProt P54764)
# Construct: purchased Ambit Biosciences (scanMAXX KINOMEscan)
# Sequence (P54764 20-986): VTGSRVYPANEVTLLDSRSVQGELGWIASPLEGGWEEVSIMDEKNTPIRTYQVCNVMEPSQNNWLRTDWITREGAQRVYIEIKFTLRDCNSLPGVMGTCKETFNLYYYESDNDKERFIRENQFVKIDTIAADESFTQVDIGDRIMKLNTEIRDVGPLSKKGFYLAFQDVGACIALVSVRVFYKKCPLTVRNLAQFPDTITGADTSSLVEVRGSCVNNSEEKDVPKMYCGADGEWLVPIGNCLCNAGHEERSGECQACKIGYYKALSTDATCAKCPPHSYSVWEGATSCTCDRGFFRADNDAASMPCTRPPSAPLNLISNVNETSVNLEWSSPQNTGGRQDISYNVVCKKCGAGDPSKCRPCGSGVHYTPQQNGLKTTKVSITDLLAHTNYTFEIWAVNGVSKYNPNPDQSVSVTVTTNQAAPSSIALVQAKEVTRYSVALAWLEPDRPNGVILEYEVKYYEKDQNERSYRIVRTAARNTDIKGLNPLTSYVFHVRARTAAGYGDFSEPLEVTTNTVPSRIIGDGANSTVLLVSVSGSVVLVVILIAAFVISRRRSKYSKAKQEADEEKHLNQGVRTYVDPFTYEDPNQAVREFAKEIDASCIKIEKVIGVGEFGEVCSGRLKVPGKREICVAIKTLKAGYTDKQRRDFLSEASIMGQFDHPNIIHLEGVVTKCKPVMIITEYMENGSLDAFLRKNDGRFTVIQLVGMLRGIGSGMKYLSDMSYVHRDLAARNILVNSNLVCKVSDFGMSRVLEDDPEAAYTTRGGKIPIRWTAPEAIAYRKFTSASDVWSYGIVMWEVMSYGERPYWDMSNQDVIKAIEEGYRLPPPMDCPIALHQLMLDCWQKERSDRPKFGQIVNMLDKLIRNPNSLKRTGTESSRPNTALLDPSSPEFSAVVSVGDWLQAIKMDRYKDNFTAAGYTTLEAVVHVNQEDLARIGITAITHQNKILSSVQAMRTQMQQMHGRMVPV
# Procedure Text: biochemical
# Format: binding
# Conditions: EPHA4; 1 µM; read-out: % of control at 1 µM
Field format: number, assumed %, no unit text.

Recall the recorded remaining activity at 1 µM for FC(F)c1nc2ccccc2n1-c1nc(N2CCOCC2)nc(N2CCOCC2)n1 [ZSTK474] with panel of 442 kinases (Homo sapiens, UniProt P54764) and state it.
96

Find remaining activity at 1 µM (panel of 442 kinases (Homo sapiens, UniProt P54764)) for the entry Nc1cc(C(F)(F)F)c(-c2cc(N3CCOCC3)nc(N3CCOCC3)n2)cn1 [Buparlisib]
98

Lookup: remaining activity at 1 µM / panel of 442 kinases (Homo sapiens, UniProt P54764) / COc1ncc(-c2ccc3nccc(-c4ccnnc4)c3c2)cc1NS(=O)(=O)c1ccc(F)cc1F [Omipalisib]
100

Can you look up remaining activity at 1 µM on panel of 442 kinases (Homo sapiens, UniProt P54764) for Cn1c(=O)n(-c2ccc(C(C)(C)C#N)cc2)c2c3cc(-c4cnc5ccccc5c4)ccc3ncc21 [Dactolisib] ?
97

###

Assign remaining activity at 1 µM to each entry below.
# Target Or Test System: panel of 442 kinases (Homo sapiens)
# Construct: purchased Ambit Biosciences (scanMAXX KINOMEscan)
# Procedure Text: biochemical
# Type: binding
# Conditions: CDKL5; 1 µM; read-out: % of control at 1 µM
Your answer is read as %, so omit the unit and give the number.

Could you tell me which remaining activity at 1 µM is on file for `FC(F)c1nc2ccccc2n1-c1nc(N2CCOCC2)nc(N2CCOCC2)n1` ?
100

# remaining activity at 1 µM lookup, item `Nc1cc(C(F)(F)F)c(-c2cc(N3CCOCC3)nc(N3CCOCC3)n2)cn1`
88

Consider the compound `COc1ncc(-c2ccc3nccc(-c4ccnnc4)c3c2)cc1NS(=O)(=O)c1ccc(F)cc1F` and give its measured remaining activity at 1 µM.
100

# query: remaining activity at 1 µM of entry `Cn1c(=O)n(-c2ccc(C(C)(C)C#N)cc2)c2c3cc(-c4cnc5ccccc5c4)ccc3ncc21`
100
